Source listed as PubChem BioAssay (NCATS).

List of activation values.
Target: Thyrotropin-releasing hormone receptor (Homo sapiens)
Assay: qHTS for Small Molecule Agonists and Allosteric Enhancers of Human TRH Receptor: Validation Screen for Agonists (AID 493127);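 note: intracellular calcium rise by fluo-8 fluorescence before TRH EC20 addition; 0% is about no effect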
Conditions: TRH receptor agonist cell assay; at 2 µM; active compounds read high
Form entry: value (%) — number only.

Sample answers from the record:
CP(=O)(O)CCCN
1.06
C=CCN1CCC2(C)c3cc(O)ccc3CC1C2C (stereo not drawn)
1.19
CN1CCc2cc(O)cc3c2C1Cc1ccc(O)c(O)c1-3 (stereo not drawn)
1.44

Consider now this further molecule.
(Q) Retrieve activation measured for `N[C@@H](Cn1cc(I)c(=O)[nH]c1=O)C(=O)O` and print it.
(A) 0.375

* * *

System: HEK293
Experiment: Cytotoxic Profiling of Annotated Libraries Using Quantitative High-Throughput Screening (AID 1296008); note: % is set by controls: 0 for no effect and ±100 for the full control effect; nearly all actives have a fitted effect of over 60% in size
Settings: Five cell lines viability, CellTiter-Glo ATP luminescence, 48-72 h; active compounds read low
Records with an inconclusive call do not appear. Active and inactive are the calls of the source. The call rests on the fitted dose curve; in most records, active means well fitted inhibition curve with a large enough effect; inconclusive means small, poorly fitted or top-dose-only effect; inactive means flat fitted curve, though single readings scatter.
Measurement Kind: max response

Sample answers from the record:
COc1ccc(C23CCC(=O)C=C2N(C)CC3)cc1OC (centres undefined)
-6.12% (inactive)
C/C=C(/C)C(=O)O[C@H]1[C@@H]2[C@H](C)C(=O)O[C@@H]2C[C@@H](C)[C@@H]2C=CC(=O)[C@]21C
-117% (inactive)

(Q) Retrieve max response measured for `C#CCO[C@H]1CN2CCC1CC2` and print it.
(A) -18.5% (inactive)

(Q) Retrieve max response measured for CCC(C)/C=C(C)/C=C/C1=CC2=C(Cl)C(=O)C(C)(OC(C)=O)C(=O)C2=CO1 (centres undefined) and print it.
(A) -69.1% (inactive)

(Q) Retrieve max response measured for CN(C)[C@@H]1C(=O)C(C(N)=O)=C(O)[C@@]2(O)C(=O)C3=C(O)c4c(O)ccc(Cl)c4[C@@](C)(O)C3C[C@@H]12 (some centres undefined) and print it.
(A) 0.697% (inactive)

(Q) Retrieve max response measured for C=C1C2(C)CC3C(C)(O)C4=CC(=O)OC(C)(C)C4=CCC3(C)C13C(=O)OC(C)C3(O)C2=O (centres undefined) and print it.
(A) -2.5% (inactive)

(Q) Retrieve max response measured for `CC(C)(C)[C@]1(O)C[C@@H]2OC(=O)C[C@@]23C(=O)O[C@@H]2OC(=O)[C@@H](O)[C@]213` and print it.
(A) 1.81% (inactive)

(Q) Retrieve max response measured for `Cc1c(Cl)c(OCC(=O)N2CCN(C)CC2)nc2sc(C(=O)NC3CC3)c(N)c12` and print it.
(A) -7.33% (inactive)

(Q) Retrieve max response measured for `NC(=O)[C@@H](CC1CC1)[C@@H](CCC(F)(F)F)C(=O)N[C@H]1N=C(c2ccccc2)c2cccc(F)c2NC1=O` and print it.
(A) 0.706% (inactive)

(Q) Retrieve max response measured for `C=CC/C=C\C/C=C\CCCCCCCc1cc(O)cc(O)c1` and print it.
(A) -20.2% (inactive)

(Q) Retrieve max response measured for COCC(C(=O)OC1CC2CCC(C1)N2C)c1ccccc1 (centres undefined) and print it.
(A) -0.619% (inactive)

(Q) Retrieve max response measured for `C1=C(c2cnc[nH]2)c2ccsc2CC1` and print it.
(A) -1.06% (inactive)

(Q) Retrieve max response measured for CN1CCc2cc3c(cc2C1C1OC(=O)c2c1ccc1c2OCO1)OCO3 (centres undefined) and print it.
(A) 1.39% (inactive)

* * *

Test system: Tov-21-G
Assay: Primary qHTS to identify gynecologic anti-cancer compounds using libraries of approved drugs and bioactive compounds (AID 1345084); note: nearly all actives have a fitted effect of over 55% in size
Conditions: Gynecologic cancer cell panel viability, ATPlite luminescence, 48 h; series mostly up to 57.5 µM
Inconclusive results are not listed. Calls of active or inactive are those of the source. Calls follow the shape of the dose curve; as a rule, active = well fitted cell-killing curve with a large enough effect; inconclusive = small, poorly fitted or top-dose-only effect, or effect the other way; inactive = flat fitted curve, though single readings scatter.
Give your call using only these classes: 1.0 for active, 0.0 for inactive

Past entries and their recorded results:
Oc1ccc2c3c1O[C@H]1c4[nH]c5c(N=C=S)cccc5c4C[C@@]4(O)[C@@H](C2)N(CC2CC2)CC[C@]314
0.0
COC1CC(O[C@H]2CC[C@@]3(C)C(CCC4C3CC[C@]3(C)[C@@H](C5=CC(=O)OC5)CC[C@]43O)C2)OC(C)C1O (stereo not given in full)
1.0
CC[C@H]1/C=C\C=C/C[C@@H](C)[C@H](O)[C@@](C)(O)C(=O)[C@@H](C)[C@H](O)[C@@H](C)C(=O)[C@@H](C)[C@H](O)[C@@H](C)/C=C\C(=O)O[C@@H]2[C@H](C)[C@H](CC1)O[C@]1(CC[C@H](C)[C@H](C[C@@H](C)O)O1)[C@H]2C
0.0

(Q) What did this assay record as the result for `CC[C@H](C)[C@H](NC(=O)[C@H]1CCCCN1C)C(=O)N(COC(=O)CC(C)C)[C@H](C[C@@H](OC(C)=O)c1nc(C(=O)N[C@@H](Cc2ccc(O)cc2)C[C@H](C)C(=O)O)cs1)C(C)C` ?
(A) 1.0

(Q) What did this assay record as the result for N#CC(O[C@@H]1O[C@H](CO)[C@@H](O)[C@H](O)[C@H]1O)c1ccccc1 (stereo not given in full) ?
(A) 0.0

(Q) What did this assay record as the result for `C[C@H](Nc1ncnc2nc[nH]c12)c1nc2ccc(F)cc2c(=O)n1-c1ccccc1` ?
(A) 0.0

(Q) What did this assay record as the result for `Clc1ccc([C@]23CNC[C@H]2C3)cc1Cl` ?
(A) 0.0

(Q) What did this assay record as the result for CC1CCCC(O)CCC/C=C/c2cc(O)cc(O)c2C(=O)O1 (stereo not given) ?
(A) 0.0

(Q) What did this assay record as the result for `COc1ccc2c(c1)c(CCN(C)C)cn2S(=O)(=O)c1ccccc1` ?
(A) 0.0

(Q) What did this assay record as the result for COC(=O)C12C(=O)C(C)(O)C(=O)C1(C)C(C)=CC1C3(C=O)CCC(OC(C)=O)C(C)(C)C3CCC12C (stereo not given) ?
(A) 0.0

(Q) What did this assay record as the result for C=C[C@H]1CN2CCC1C[C@H]2[C@H](O)c1ccnc2ccccc12 (stereo not given in full) ?
(A) 0.0

(Q) What did this assay record as the result for `CNC(=O)c1cc(C#N)cc(C)c1NC(=O)c1cc(Br)nn1-c1ncccc1Cl` ?
(A) 0.0

(Q) What did this assay record as the result for CO[C@@H]1[C@H](O)[C@@H](O[C@@H]2C[C@H]3CC[C@@H]4C(CC[C@]5(C)[C@@H](C6=CC(=O)OC6)CC[C@]45O)[C@@]3(C)[C@H](O)C2)O[C@H](C)[C@@H]1O (stereo not given in full) ?
(A) 1.0

(Q) What did this assay record as the result for `COc1cc(O)c2c(c1)CCC[C@@H](O)[C@H](O)C(=O)/C=C\C[C@H](C)OC2=O` ?
(A) 1.0

(Q) What did this assay record as the result for `CC[C@H]1C2CC3[C@@H]4N(C)c5ccccc5[C@]45C[C@@H]([C@H]2[C@H]5O)N3[C@H]1O` ?
(A) 0.0

* * *

System: Hek293T
Test: Primary qHTS to identify gynecologic anti-cancer compounds using libraries of approved drugs and bioactive compounds (AID 1345084); note: nearly all actives have a fitted effect of over 55% in size
Details: Gynecologic cancer cell panel viability, ATPlite luminescence, 48 h, control line for the selectivity index; series mostly up to 57.5 µM
Results filed as inconclusive are left out. Calls of active or inactive are those of the source. Calls follow the shape of the dose curve; as a rule, active = well fitted cell-killing curve with a large enough effect; inconclusive = small, poorly fitted or top-dose-only effect, or effect the other way; inactive = flat fitted curve, though single readings scatter.
Give your call using only these classes: Yes for active, No for inactive

Past entries and their recorded results:
CN1CCN(c2nc3ccccc3nc2Cl)CC1
No
CC[C@H]1C2CC3[C@@H]4N(C)c5ccccc5[C@]45C[C@@H]([C@H]2[C@H]5O)N3[C@@H]1O
No
COc1ccc(CCNCc2ccc(OC)c3ccccc23)cc1
No
CC[C@@H]1C[C@H]2CC[C@H](O2)[C@H](C)C(=O)O[C@@H](C)C[C@@H]2CC[C@@H](O2)[C@@H](C)C(=O)O[C@H](C)C[C@H]2CC[C@H](O2)[C@H](C)C(=O)O[C@@H](C)C[C@@H]2CC[C@@H](O2)[C@@H](C)C(=O)O1
Yes

(Q) What did this assay record as the result for `C[C@H]1O[C@@H](n2cnc3c(N)ncnc32)C[C@@H]1O` ?
(A) No

(Q) What did this assay record as the result for CO[C@H]1[C@@H](O)[C@@H](C)O[C@@H](O[C@@H]2C=C3C(OC(C)=O)CC4(O)C(CC[C@]5(C)[C@@H](C6=CC(=O)OC6)CC[C@]45O)[C@@]3(C)CC2)[C@@H]1O (stereo partly drawn) ?
(A) Yes

(Q) What did this assay record as the result for CC1=CC2OC3CC(O)[C@](C)([C@@]2(C)C(O)C1=O)[C@]31CO1 (stereo partly drawn) ?
(A) Yes

(Q) What did this assay record as the result for COC1C=CC23c4cc5c(cc4COC2(O)CN(C)C3C1)OCO5 (stereo not drawn) ?
(A) No

* * *

Molecular target: Chromobox protein homolog 1 (Homo sapiens) (UniProt P83916)
Sequence (P83916 whole entry, looked up): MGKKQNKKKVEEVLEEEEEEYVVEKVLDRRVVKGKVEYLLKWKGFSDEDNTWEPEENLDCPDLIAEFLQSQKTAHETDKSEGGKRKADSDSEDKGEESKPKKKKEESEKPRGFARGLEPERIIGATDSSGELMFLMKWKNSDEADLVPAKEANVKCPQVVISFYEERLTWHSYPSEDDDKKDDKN
Assay: qHTS Validation Assay for Inhibitors of HP1-beta Chromodomain Interactions with Methylated Histone Tails (AID 488953); note: nearly all actives have a fitted effect of over 50% in size
Conditions: HP1-beta chromodomain / methylated histone peptide binding assay; series mostly up to 114 µM
Records with an inconclusive call do not appear. Calls of active or inactive are those of the source. The call rests on the fitted dose curve; in most records, active means well fitted inhibition curve with a large enough effect; inconclusive means small, poorly fitted or top-dose-only effect; inactive means no such curve, though single readings can be large or run the other way.
Give your call using only these classes: active, inactive

(Q) What did this assay record as the result for `CNCC[C@H](Oc1ccc(C(F)(F)F)cc1)c1ccccc1` ?
(A) inactive

(Q) What did this assay record as the result for `O=c1oc(Cl)c(Cl)c2ccccc12` ?
(A) active

(Q) What did this assay record as the result for COc1ccc2c(c1)CCC1C2CC[C@@]2(C)C1CC[C@@H]2NCCCCCCN1C(=O)C=CC1=O (stereo not given in full) ?
(A) active

(Q) What did this assay record as the result for `O=[N+]([O-])c1ccc(O[C@@H]2O[C@H](CO)[C@@H](O)[C@H](O)[C@H]2F)c([N+](=O)[O-])c1` ?
(A) inactive

(Q) What did this assay record as the result for `NO` ?
(A) active
